- Tested on: MDA-MB-231
- protocol: NCI tumour cell line growth inhibition, 48 h
Active and inactive are the calls of the source. No stated cut-off is given here; in the data, active = GI50 up to about 1.1 µM and inactive = higher.
Recorded GI50 for the following molecules

# molecule, GI50
measured = [
    ("O=C1N=C(c2ccccc2)O/C1=C\\c1ccccc1", "> 100 µM (inactive)"),
    ("COC(=O)/C=C\\C(C#N)(C#N)/N=C/c1ccsc1", "5.73 µM (inactive)"),
    ("Cc1ccc2c3c1O[C@H]1c4[nH]c5ccccc5c4C[C@@]4(O)[C@@H](C2)N(CC2CC2)CC[C@]314", "19.4 µM (inactive)"),
    ("NN/C(=N\\S(=O)(=O)c1cc(Cl)c(Oc2ccc([N+](=O)[O-])cc2Cl)c(Cl)c1)Nc1ccc(Cl)cc1", "18.4 µM (inactive)"),
    ("CC(C)OC(=O)c1ccc(NCc2cc(O)ccc2O)cc1", "2.2 µM (inactive)"),
    ("CCc1c2c([nH]c(=S)c1C#N)CCC2", "> 100 µM (inactive)"),
    ("COc1ccc(-c2cc(-c3ccccc3)c3c(n2)-c2ccccc2NC(=O)C3)cc1", "25.4 µM (inactive)"),
    ("C=C(C)[C@@H]1C[C@H]2O[C@](O)(C(=C)CC(=O)/C=C(/C)C[C@@H]3OC(=O)[C@]24O[C@@H]34)[C@H]1O", "> 100 µM (inactive)"),
    ("O=C(OCCN1CCCCC1)C(c1ccccc1)C1(O)CCSCC1 (stereo unspecified)", "> 100 µM (inactive)"),
    ("O=C1CN(c2cccc(C(F)(F)F)c2)C(=O)CN1NCNN1CC(=O)N(c2cccc(C(F)(F)F)c2)CC1=O", "> 100 µM (inactive)"),
    ("CN1c2ccccc2C(=O)Nc2cnc(Cl)nc21", "44.3 µM (inactive)"),
    ("O=C(CSc1nc2ccccc2s1)c1sc2sc3ccccc3[n+]2c1[O-]", "26.9 µM (inactive)"),
    ("CCOC(=O)C(=O)C(/C(=N/N(C)C)C(=O)Nc1ccc(C)cc1C)c1nc2ccccc2nc1O (stereo unspecified)", "> 100 µM (inactive)"),
    ("CN(C)c1ccc2c(c1)oc(=O)c1ccccc12", "16.5 µM (inactive)"),
    ("CCOC(=O)/C(C#N)=N\\Nc1ccc(-n2c(C)nc3ccc(Br)cc3c2=O)cc1", "> 100 µM (inactive)"),
    ("Clc1ccc(C2ON=C(c3ccccc3)N2C23CC4CC(CC(C4)C2)C3)c(Cl)c1 (stereo unspecified)", "> 10 µM (inactive)"),
    ("c1ccc2c(c1)nc1n2CSCC1", "> 100 µM (inactive)"),
    ("CCOC(=O)C(Cc1c2ccccc2cc2ccccc12)(NC(C)=O)C(=O)OCC", "> 23.1 µM (inactive)"),
    ("COC(=O)C1=C(CCCCO[Si](C)(C)C(C)(C)C)NC(=O)N2[C@@H](CCOCc3ccccc3)CC[C@H]12", "18.2 µM (inactive)"),
    ("O=[N+]([O-])c1ccc2c(c1)nc(Cc1ccc(Cl)cc1)n2C[C@@H]1CCCN2CCCCC12 (stereo partly specified)", "16.5 µM (inactive)"),
    ("CC(=O)Oc1ccccc1[C@H]1CC(=O)C[C@H](c2ccccc2OC(C)=O)C12C(=O)c1ccccc1C2=O", "27.1 µM (inactive)"),
    ("C=C1C(=O)OC2C1C(=O)C/C(C)=C/CCC1(C)OC21 (stereo unspecified)", "20.8 µM (inactive)"),
    ("COc1cccc(CC2Cc3ccccc3CC(=O)N2)c1 (stereo unspecified)", "10 µM (inactive)"),
    ("Cc1ccc(C)n1-n1c(Cc2ccccc2)n[nH]c1=O", "> 100 µM (inactive)"),
    ("O=C(O)c1cccc(Nc2c(C(=O)O)cccc2[N+](=O)[O-])c1", "> 100 µM (inactive)"),
    ("O=C1CC(c2ccccc2)NCCCCN2CC(CN1)C(C(O)c1ccccc1)C2=O (stereo unspecified)", "> 100 µM (inactive)"),
    ("CN(C)C(=O)Oc1ccc[n+](C)c1 [PYRIDOSTIGMINE BROMIDE]", "> 100 µM (inactive)"),
    ("Cc1nc(N)sc1/N=N/c1ccccc1Br", "37.3 µM (inactive)"),
    ("CN(C)CCNc1ccc(NCC[N+](C)(C)Cc2ccc([N+](=O)[O-])cc2)c2c1C(=O)c1c(O)ccc(O)c1C2=O", "43.2 µM (inactive)"),
    ("CCOC(=O)c1ccc(/N=C/C=C(\\Nc2ccc(C(=O)OCC)cc2)C23CC4CC(CC(C4)C2)C3)cc1", "> 100 µM (inactive)"),
    ("C=C[C@@]1(C)CC2(C=C(CO)C(O)O2)Oc2c1c(=O)oc1cccc(C)c21 (stereo partly specified)", "10.5 µM (inactive)"),
    ("CCCCCCCCCCCCNC(=O)NCC(OCC)OCC", "> 10 µM (inactive)"),
    ("CC(=O)C(C(=O)c1ccc(C)cc1)[C@H]1OC(C)(C)O[C@H]1[C@H]1COC(C)(C)O1 (stereo partly specified)", "5.82 µM (inactive)"),
    ("CC(=O)N1C(Nc2nccs2)CCN1c1ccccc1 (stereo unspecified)", "> 10 µM (inactive)"),
    ("N#Cc1nc(-c2ccccc2O)oc1N", "> 100 µM (inactive)"),
    ("C#C/C=C\\CCCCCCCCCCCCCC/C=C\\CCCCC#CC(O)C#CCCCC/C=C\\CCCCCC/C=C/C(O)C#C (stereo unspecified)", "34.2 µM (inactive)"),
    ("O=[N+]([O-])c1ccc(C2CC(c3ccccc3Cl)=Nc3ccccc3[S+]2[O-])cc1 (stereo unspecified)", "2.29 µM (inactive)"),
    ("COc1ccccc1/C=C1\\S/C(=N/Nc2nc(C)c(C(C)=O)s2)NC1=O", "22.8 µM (inactive)"),
    ("O=C1CCC2C(O)c3cc4c(cc3C(c3ccc5c(c3)OCO5)N12)OCO4 (stereo unspecified)", "> 100 µM (inactive)"),
    ("O=C(CSCC(=O)N/N=C/c1ccc(F)cc1)N/N=C/c1ccc(F)cc1", "> 100 µM (inactive)"),
    ("NS(=O)(=O)c1nnc(NC(=O)c2ccccc2)s1", "> 100 µM (inactive)"),
]
